Sourced from PubChem BioAssay AID1794808

# Test system: Plasmodium falciparum apicoplast DNA polymerase (apPOL)
# experiment-summary: Pf-apPOL inhibitors, biochemical, fluorescence (AID 1794808)
# cond: Recombinant Pf-apPOL, molecular beacon fluorescence, 1.5 h; at 10 µM
Screen size: about 210,000 compounds; about 520 (0.25%) were called active. Rule as the data show it: active = inhibition above about 50%; inactive = the rest. The sample as a whole holds a higher share of actives than the screen did.
Pick from 1 = active, 0 = inactive when you respond.

Incoming: Test call for this molecule, please: "O=C(CS(=O)(=O)CC(=O)c1ccccc1)c1ccccc1"
Outgoing: 0

Incoming: Test call for this molecule, please: "CCN(Cc1cc(-c2ccc(C)cc2C)on1)C(=O)c1cccs1"
Outgoing: 0

Incoming: Test call for this molecule, please: "CCc1ccc(NC(=O)CCS(=O)(=O)c2ccc(Br)s2)cc1"
Outgoing: 0

Incoming: Test call for this molecule, please: CCn1c(C2CCN(S(=O)(=O)c3cc(OC)ccc3OC)C2)nc2cccnc21 (stereo not drawn)
Outgoing: 0

Incoming: Test call for this molecule, please: "COc1ccc(C(=O)N2CCN(c3nc(C(C)C)c4c(c3C#N)CC(C)(C)OC4)CC2)cc1"
Outgoing: 0

Incoming: Test call for this molecule, please: "N/C(=N\OC(=O)CCCc1ccccc1)c1ccc(Cl)cc1"
Outgoing: 0

Incoming: Test call for this molecule, please: "Cc1cccc(OCCNC(=O)CSc2ccc(C(F)(F)F)cc2[N+](=O)[O-])c1"
Outgoing: 0

Incoming: Test call for this molecule, please: "Cc1ccc2nc3c(nc2c1)C(=O)c1ccccc1C3=O"
Outgoing: 0

Incoming: Test call for this molecule, please: "O=C(CSc1ccc(C(F)(F)F)cc1[N+](=O)[O-])NCCOc1ccccc1"
Outgoing: 1

Incoming: Test call for this molecule, please: "CCOc1cc(C2C3=C(CCCC3=O)N(CC)C3=C2C(=O)CCC3)cc(Cl)c1O"
Outgoing: 1

Incoming: Test call for this molecule, please: "COc1cccc(NC(=O)c2cncc(-c3ccc(F)cc3)c2)c1"
Outgoing: 0

Incoming: Test call for this molecule, please: O=C(NC1CC1)c1cccc(OCC2CCCN(C(=O)C3CCCCC3)C2)c1 (stereo not drawn)
Outgoing: 0

Incoming: Test call for this molecule, please: CC1(C(=O)O)NC(c2cc(Cl)ccc2O)C2C(=O)N(c3ccc(Cl)cc3)C(=O)C21 (stereo not drawn)
Outgoing: 0

Incoming: Test call for this molecule, please: "Cc1ccc(C)c(OCC(=O)Nc2ccccc2C(N)=O)c1"
Outgoing: 0

Incoming: Test call for this molecule, please: "O=C(CSc1nnc(NC(=O)c2cc(-c3ccco3)on2)s1)NC1CCCC1"
Outgoing: 1

Incoming: Test call for this molecule, please: "COc1ccc2nc(SC)[nH]c2c1"
Outgoing: 0

Incoming: Test call for this molecule, please: "Cc1ccc2c(c1)C(=O)C(=O)S2"
Outgoing: 1

Incoming: Test call for this molecule, please: "Nc1ccc2nc(SCC(=O)NC3CC3)sc2c1"
Outgoing: 0

Incoming: Test call for this molecule, please: "CN1/C(=C/C(=O)c2ccc(I)cc2)Sc2ccccc21"
Outgoing: 0

Incoming: Test call for this molecule, please: "COc1cc(/C=c2\sc3nc(-c4ccc(Cl)cc4)nn3c2=O)cc(OC)c1OC"
Outgoing: 0

Incoming: Test call for this molecule, please: "CCN1C2=C(C(=O)CC(C)(C)C2)C(c2cc(Cl)c(O)c(OC)c2)C2=C1CC(C)(C)CC2=O"
Outgoing: 0

Incoming: Test call for this molecule, please: "COc1ccc2nc(SCC(=O)c3ccc(Cl)c(Cl)c3)[nH]c2c1"
Outgoing: 1

Incoming: Test call for this molecule, please: "Cc1ccc(-c2ccc(C)cc2N)c(N)c1"
Outgoing: 0

---

# System: Plasmodium falciparum apicoplast DNA polymerase (apPOL)
# experiment-summary: Pf-apPOL inhibitors, biochemical, fluorescence (AID 1794808)
# cond: Recombinant Pf-apPOL, molecular beacon fluorescence, 1.5 h; at 10 µM; stronger effect = higher value
In all, about 210,000 compounds went through this assay and about 520 (0.25%) were called active. Shown is part of a subset that was picked to be rich in actives.
Could you please report measured inhibition for the items listed next?
The reply should contain only the number, in %.

Incoming: So what does the record say about inhibition for "O=C(Nc1cc(F)c2nc(N3CCCC3)ccc2c1)c1cccc(F)c1" ?
Outgoing: 0.1

Incoming: So what does the record say about inhibition for "Cc1cccc(NC(=O)c2cc3c(CO)cnc(C)c3oc2=Nc2ccc3c(c2)OCO3)c1" ?
Outgoing: -0.2

Incoming: So what does the record say about inhibition for Cc1cccc(NC(=O)N2CC(c3nc(C)no3)C3(CCOCC3)C2)c1 (configuration not stated) ?
Outgoing: -0.4

Incoming: So what does the record say about inhibition for "Cc1ccc(-n2cc(C(=O)Nc3ccc4c(c3)OCCO4)c3ccccc3c2=O)cc1C" ?
Outgoing: -2.6

Incoming: So what does the record say about inhibition for O=C(NCc1cccc(F)c1)C1CCc2sc(C(=O)N3CCCC3)cc2C1 (configuration not stated) ?
Outgoing: -2.5

Incoming: So what does the record say about inhibition for CC1=C(C(=O)Nc2ccc(Cl)cc2)C(c2ccc(Cl)cc2Cl)n2ncnc2N1 (configuration not stated) ?
Outgoing: 6

Incoming: So what does the record say about inhibition for "CCOc1nn(-c2nc(-c3ccccc3)cc(C(F)(F)F)n2)cc1[N+](=O)[O-]" ?
Outgoing: 1.6

Incoming: So what does the record say about inhibition for "Nc1cc2c(cc1[N+](=O)[O-])OCCOCCOc1ccc([N+](=O)[O-])cc1OCCOCCO2" ?
Outgoing: -0.2

Incoming: So what does the record say about inhibition for "Cc1ccsc1/C=C(\C(=O)NCc1cccnc1)S(=O)(=O)c1ccccc1" ?
Outgoing: 2.5

Incoming: So what does the record say about inhibition for O=C(c1ccc(OCC2CCCN(C(=O)c3ccccn3)C2)cc1)N1CCCC1 (configuration not stated) ?
Outgoing: 3.1

Incoming: So what does the record say about inhibition for O=C(C=Cc1ccco1)NCC1COC2(CCCCC2)O1 (configuration not stated) ?
Outgoing: -8.3

Incoming: So what does the record say about inhibition for "Cc1nc(N2CCC(C(N)=O)CC2)nc(NCc2ccco2)c1[N+](=O)[O-]" ?
Outgoing: -9.6

Incoming: So what does the record say about inhibition for O=C(NCC1COC2(CCCC2)O1)c1ccccc1[N+](=O)[O-] (configuration not stated) ?
Outgoing: -1.9

Incoming: So what does the record say about inhibition for "COc1ccccc1N1CCN(CC(=O)Nc2ncc(C)s2)C1=O" ?
Outgoing: -2.4

Incoming: So what does the record say about inhibition for "Cc1nc(-c2ccncc2)nc2c1CC(=O)N2C1CCCC1" ?
Outgoing: -7.5

Incoming: So what does the record say about inhibition for "CCC(=O)N1CCC(COc2ccccc2C(=O)N2CCCCC2)CC1" ?
Outgoing: -0.7

Incoming: So what does the record say about inhibition for O=C(NCCC1=CCCCC1)C(=O)NCC(c1ccc2c(c1)OCO2)N1CCOCC1 (configuration not stated) ?
Outgoing: -1.8

Incoming: So what does the record say about inhibition for "CCNC(=O)c1nsc2ccc(C)cc12" ?
Outgoing: -1.8

Incoming: So what does the record say about inhibition for "CCCNc1cc(N2CCC(CCC(=O)NC(C)C)CC2)ncn1" ?
Outgoing: -1.9

Incoming: So what does the record say about inhibition for "COc1ccc(C=C2Oc3c(ccc(O)c3CN3CCCCCC3)C2=O)cc1OC" ?
Outgoing: -19.5

Incoming: So what does the record say about inhibition for "CC(C)c1cccc(N2C=C(C#N)S(=O)(=O)c3c(F)cccc32)c1" ?
Outgoing: -0.6

Incoming: So what does the record say about inhibition for "COC(=O)c1cc(Nc2cc(F)ccc2F)c2ccccc2n1" ?
Outgoing: -1.7

---

# Test system: Plasmodium falciparum apicoplast DNA polymerase (apPOL)
# experiment-summary: Pf-apPOL inhibitors, biochemical, fluorescence (AID 1794808)
# cond: Recombinant Pf-apPOL, molecular beacon fluorescence, 1.5 h; at 10 µM
Hit rate of the full screen: of about 210,000 compounds, about 520 (0.25%) were called active. Rule as the data show it: active = inhibition above about 50%; inactive = the rest. Many of the other results were omitted from the sample, so actives are more common in it than they were.
Pick from active, inactive when you respond.

Incoming: Test call for this compound, please: "O=C(c1ccccc1)c1ccc(OCCNC(=O)c2ccccc2Br)cc1"
Outgoing: inactive

Incoming: Test call for this compound, please: "COc1cccc(/C=c2\sc3nc(=O)c(C)nn3c2=O)c1"
Outgoing: inactive

Incoming: Test call for this compound, please: Cc1ccc(C(=O)N2CCN(c3ccc(F)c(Cl)c3)C(=O)C2C)cc1 (stereo unspecified)
Outgoing: active

Incoming: Test call for this compound, please: "c1ccc(-c2nnc(SCc3nc4ccccc4[nH]3)o2)cc1"
Outgoing: inactive

Incoming: Test call for this compound, please: "O=[N+]([O-])c1ccc(-c2noc(COc3ccc(Cl)cc3Cl)n2)cc1"
Outgoing: inactive

Incoming: Test call for this compound, please: "Cc1cc(C)c(S(=O)(=O)N2CCC(c3noc(-c4ccc(F)cc4)n3)CC2)c(C)c1"
Outgoing: inactive

---

# Test system: Plasmodium falciparum apicoplast DNA polymerase (apPOL)
# experiment-summary: Pf-apPOL inhibitors, biochemical, fluorescence (AID 1794808)
# cond: Recombinant Pf-apPOL, molecular beacon fluorescence, 1.5 h; at 10 µM; stronger effect = higher value
About 520 (0.25%) of roughly 210,000 compounds were called active. What follows is part of a selection rich in actives, with near analogues and random picks from the rest.
measurement-type: inhibition (%)
The reply should contain only the number, in %.

Incoming: So what does the record say about inhibition for "O=C(c1ccc([N+](=O)[O-])cc1)N1CCN(c2cccc(Cl)c2)CC1" ?
Outgoing: -2.7

Incoming: So what does the record say about inhibition for "CC(C)(C)NC(=O)N1CCC(CNC(=O)C(=O)Nc2cc(F)ccc2F)CC1" ?
Outgoing: -4.8

Incoming: So what does the record say about inhibition for "CC(=O)Nc1ccc(C(=O)N2CCN(c3cccc(Cl)c3)CC2)cc1" ?
Outgoing: 9.7

Incoming: So what does the record say about inhibition for Cc1cccc(S(=O)(=O)N2CCSC2c2ccccc2)c1 (stereo not given) ?
Outgoing: 95.2

Incoming: So what does the record say about inhibition for COc1cc(OC)c(OC)cc1CN1CCCC1c1cc(C)on1 (stereo not given) ?
Outgoing: 3.3
